# System: UniProt P22001
# Assay Explanation: Kv1.3 potency evaluation, automated patch clamp electrophysiology (QPatch HT) in CHO-Kv1.3 cells
# Format: cell-based
# Measurement Conditions: whole-cell QPatch HT, % inhibition of charge, step to +30 mV, four concentrations, N≥3 cells, read-out: hKv1.3 IC50
Returns: string. Value is TRUE if measured IC50 is below 100 nM, and FALSE if it is greater than or equal to it.

{"Compound": "CCCS(=O)(=O)N(Cc1ccc(Cl)c(Cl)c1)C12CC(C3=NC(C)(C)[C@H](C(=O)N4CCC(C(F)(F)F)CC4)N3)(C1)C2 (mixture of isomers)", "Category Label": "TRUE"}
{"Compound": "CC1(C)N=C(C23CC(N(Cc4ccc(Cl)cc4)S(=O)(=O)c4ccco4)(C2)C3)N[C@H]1C(=O)NCCC(F)(F)F (mixture of isomers)", "Category Label": "TRUE"}
{"Compound": "CC(F)(F)CCS(=O)(=O)N(Cc1ccc(Cl)c(F)c1)C12CC(C3=NC(C)(C)[C@H](C(=O)NCCC(F)(F)F)N3)(C1)C2 (mixture of isomers)", "Category Label": "TRUE"}
{"Compound": "CC1(C)N=C(C23CC(N(Cc4ccc(Cl)c(Cl)c4)S(=O)(=O)CCC(F)F)(C2)C3)N[C@H]1C(=O)NCC(F)(F)C(F)(F)F (mixture of isomers)", "Category Label": "FALSE"}
{"Compound": "CC1(C)N=C(C23CC(N(Cc4ccc(Cl)c(F)c4)S(=O)(=O)c4ccccc4)(C2)C3)N[C@H]1C(=O)N1CC[C@@H](C(F)(F)F)C1 (mixture of isomers)", "Category Label": "TRUE"}

Exercise: For this compound, is IC50 lower than 100 nM? CC1(C)N=C(C23CC(N(Cc4ccc(Cl)cc4)S(=O)(=O)c4ccccc4C#N)(C2)C3)N[C@H]1C(=O)NCCC(F)(F)F (mixture of isomers)
Solution: TRUE

Exercise: For this compound, is IC50 lower than 100 nM? CC1(C)N=C(C23CC(N(Cc4ccc(Cl)c(F)c4)S(=O)(=O)c4ccccc4)(C2)C3)N[C@H]1C(=O)N1CC(F)(F)C(F)(F)C1 (mixture of isomers)
Solution: TRUE

Exercise: For this compound, is IC50 lower than 100 nM? CN(C(=O)[C@@H]1NC(C23CC(N(Cc4ccc(Cl)c(F)c4)S(=O)(=O)c4ccccc4)(C2)C3)=NC1(C)C)C12CC(C1)C2 (mixture of isomers)
Solution: TRUE

Exercise: For this compound, is IC50 lower than 100 nM? CC1(C)N=C(C23CC(N(Cc4ccc(Cl)c(F)c4)S(=O)(=O)c4ccccc4)(C2)C3)N[C@H]1C(=O)NCCC(F)(F)F (mixture of isomers)
Solution: TRUE

---

IC50 for assorted compounds
# System: human Kv1.3 (Homo sapiens (Human), UniProt P22001)
# Sequence (P22001 whole entry): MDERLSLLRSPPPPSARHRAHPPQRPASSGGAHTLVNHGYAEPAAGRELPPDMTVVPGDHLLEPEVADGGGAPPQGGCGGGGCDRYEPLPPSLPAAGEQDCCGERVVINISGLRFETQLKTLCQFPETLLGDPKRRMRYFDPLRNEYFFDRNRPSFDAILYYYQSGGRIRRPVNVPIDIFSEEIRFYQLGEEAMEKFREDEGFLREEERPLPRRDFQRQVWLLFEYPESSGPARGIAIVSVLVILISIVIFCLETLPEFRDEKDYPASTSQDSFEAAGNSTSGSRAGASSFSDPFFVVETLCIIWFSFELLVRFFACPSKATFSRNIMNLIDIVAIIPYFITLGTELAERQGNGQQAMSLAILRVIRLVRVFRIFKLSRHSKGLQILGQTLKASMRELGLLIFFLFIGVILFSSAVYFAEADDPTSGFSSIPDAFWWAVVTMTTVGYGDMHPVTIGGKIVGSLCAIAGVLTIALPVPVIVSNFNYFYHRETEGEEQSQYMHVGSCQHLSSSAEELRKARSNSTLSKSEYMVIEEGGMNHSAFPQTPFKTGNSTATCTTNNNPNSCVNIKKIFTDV
# Assay Explanation: Kv1.3 potency evaluation, automated patch clamp electrophysiology (QPatch HT) in CHO-Kv1.3 cells
# Measurement Conditions: whole-cell QPatch HT, % inhibition of charge, step to +30 mV, four concentrations, N≥3 cells, read-out: hKv1.3 IC50
Supply the numeric figure in nM, leaving out any unit text.

{"Compound": "CC1(C)N=C(C23CC(N(Cc4ccc(C(F)(F)F)cc4)S(=O)(=O)c4ccc(F)cc4)(C2)C3)NC1C(=O)NCC1CC1(F)F (stereo not drawn)", "Endpoint Name": "IC50", "Display Unit": "nM", "Obs Value": 98}
{"Compound": "CN(CCC(F)(F)F)C(=O)[C@@H]1NC(C23CC(N(Cc4ccc(Cl)c(Cl)c4)S(=O)(=O)c4ccccc4)(C2)C3)=NC1(C)C (mixture of isomers)", "Endpoint Name": "IC50", "Display Unit": "nM", "Obs Value": 88}

Exercise: What value of measured IC50 is listed for CC(C)NC(=O)[C@@]1(C)CN=C(C23CC(N(Cc4ccc(C(F)(F)F)cc4)S(=O)(=O)c4ccc(F)cc4)(C2)C3)N1 (mixture of isomers) ?
Solution: 286

Exercise: What value of measured IC50 is listed for CC1(C)N=C(C23CC(N(Cc4ccc(Cl)c(Cl)c4)S(=O)(=O)CCCF)(C2)C3)N[C@H]1C(=O)NCC1CC(F)(F)C1 (mixture of isomers) ?
Solution: 78

Exercise: What value of measured IC50 is listed for CC1(C)N=C(C23CC(N(Cc4ccc(Cl)c(F)c4)S(=O)(=O)c4ccccc4)(C2)C3)N[C@H]1C(=O)NC1CC1 (mixture of isomers) ?
Solution: 55

Exercise: What value of measured IC50 is listed for CC1(C)N=C(C23CC(N(Cc4ccc(Cl)cc4)S(=O)(=O)c4ccccc4)(C2)C3)N[C@H]1C(=O)NC[C@H]1CC1(F)F (mixture of isomers) ?
Solution: 45

Exercise: What value of measured IC50 is listed for CC1(C)N=C(C23CC(N(Cc4ccc(Cl)c(Cl)c4)S(=O)(=O)CCC(F)F)(C2)C3)N[C@H]1C(=O)NCC1CC1(F)F (mixture of isomers) ?
Solution: 68

Exercise: What value of measured IC50 is listed for CC1(C)N=C(C23CC(N(Cc4ccc(Cl)cc4)S(=O)(=O)c4cccs4)(C2)C3)N[C@H]1C(=O)NCCC(F)(F)F (mixture of isomers) ?
Solution: 36

Exercise: What value of measured IC50 is listed for CC1(C)N=C(C23CC(N(Cc4ccc(C(F)(F)F)c(Cl)c4)S(=O)(=O)c4ccccc4)(C2)C3)N[C@H]1C(=O)NCCC(F)(F)F (mixture of isomers) ?
Solution: 169

Exercise: What value of measured IC50 is listed for C[C@]1(C(=O)Nc2ccccc2)CN=C(C23CC(N(Cc4ccc(C(F)(F)F)cc4)S(=O)(=O)c4ccc(F)cc4)(C2)C3)N1 (mixture of isomers) ?
Solution: 4080

Exercise: What value of measured IC50 is listed for C[C@]1(C(=O)NCc2ccccc2)CN=C(C23CC(N(Cc4ccc(C(F)(F)F)cc4)S(=O)(=O)c4ccc(F)cc4)(C2)C3)N1 (mixture of isomers) ?
Solution: 485

Exercise: What value of measured IC50 is listed for CC1(C)N=C(C23CC(N(Cc4ccc(Cl)c(F)c4)S(=O)(=O)c4ccccc4)(C2)C3)N[C@H]1C(=O)N1CCCC1 (mixture of isomers) ?
Solution: 109

Exercise: What value of measured IC50 is listed for CC1(C)N=C(C23CC(N(Cc4ccc(Cl)c(Cl)c4)S(=O)(=O)CCC(F)F)(C2)C3)N[C@H]1C(=O)NC[C@H]1CC1(F)F (mixture of isomers) ?
Solution: 105

Data origin, for the record: patent US12128028B2
